Test system: K4 kissing-loop RNA reporter
Assay method text: apparent KD of K4 kissing-loop reporter; higher = weaker reporter binding
Measurement context: Eterna round: R107; input ligand: none
Measured endpoint: apparent KD of K4 kissing-loop reporter (nM)
Give the number; nM is assumed, so skip it.

Consider the worked cases shown below.
| Sequence record | apparent KD of K4 kissing-loop reporter / nM |
| --- | --- |
| AAGUGUGUGGCGGCCGCCACUAGAAUCCAGUGAUGUUGGAGUUAUCAAAUAAAUGAUAAUCAACAUAGGACCGGGCCAUAUAGAA [Same State - Tryptophan B (Freestyle 4)] | 626 |
| CGCAGUGAUGUUGCUAUUAUUCUUGAUUAACGAGGACCGGUACGGCCGCCACUCGAUUUCUAUCUAAUUUAGUGUUAUGUUGAUU [JR_ExcTryptoA_Sub007] | 397 |

The sequence listed as GUACCGCGUGCGGCCGCCACUACAUCAAUUACCUAAGCCUAGUGAUGUUGGGUUUUUGCUACAGGUAGGACCGGGCAGAUGUAUG [theeternabot_sameState_KL_Trp_B_38] has a reported apparent KD of K4 kissing-loop reporter of 307

====

Overview of recorded apparent KD of K4 kissing-loop reporter for various sequences
System: K4 kissing-loop RNA reporter;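 further: bound reporter read as fluorescence of individual clusters on recovered sequencing chips by microscopy, with normalized cluster intensities fitted with a binding model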
Assay method text: apparent KD of K4 kissing-loop reporter; higher = weaker reporter binding
Measurement context: Eterna round: R107; input ligand: arginine 13.2 mM
Write the value in nM as a bare number.

| Sequence record | Unit name | apparent KD of K4 kissing-loop reporter |
| --- | --- | --- |
| GGGAAGAAGGCGGCCGCCACUGCAGAAGAGACAGAGAGAGAAGAAGAGGAGUGAUGUUCCAAGAACAGGACCGGGCCAAGAAGGG [whbob_SS_Tryp_B_t28] | nM | 84.2 |
| ACCCGUAGGAUACGGAGGUGUAAAUGGGUAUAGGAUAUCUAGAAAUAGAGAAGGAUACCAGUGAUGUUGGUUCCGUAUAUCUUAA | nM | 137 |
| GCCGUAGAUUGAAGGAGCGGACAGAUACGGGAAUCCAGUGAUGUUGGAAGGUAACUACUAGUCCAGGUAGGUCGCAAUCUACGGC | nM | 128 |
| UACAAACGUAGUGAUGUUACGUACUCUGAUACCAGACAAGUGUAAGUCCCUUGGCAGCAGUCAUUUUGCUUAUUAUUUUCUCAAA [JR_ExcTheophyA_Sub019] | nM | 88.1 |
| CGUUUAUAGCAGGAUACCAGUGCGGAUAAGGUGCGUUAAUAGUAGAGUGAUGUUCUAAAGUACCCUUGGCAGCUUAGAGUGAGUG [#21 K4 Theophylline B Exclusion] | nM | 144 |

Record summary for CGAGAGCUCUUGUUUGGAUGUGUUUUAUGGCGAGGACCGGUACGGCCGCCACUCGGGUGAUGUUAGUGAUGUUGAUGUAGUGAUG [qzxmullin] : reported apparent KD of K4 kissing-loop reporter = 79.6

====

# maps each entry to its apparent KD of MS2 coat protein
System: MS2 coat protein
Assay method text: apparent KD of MS2 coat protein; designed switch direction (-1 OFF switch, 1 ON switch): -1; higher = weaker reporter binding
Measurement context: input ligand: FMN 200 uM
The reply should contain only the number, in nM.

Example sequences with recorded apparent KD of MS2 coat protein:
| Sequence record | Reported |
| --- | --- |
| AACGUCGAAGGAUAUACAUGAGGAUCACCCAUGUGGGACCUGUAAUCUCACCCAUCGUGUAGAAGGUUGAGGUA [Learberi] (Eterna round: R97, puzzle: Exclusion 3) | 29.9 |
| GUCUACCAGCUAGGAUAUGCAGUACAGUAAAAUGUAGAAGGAGCACGAUCCAGACAUGAGGAUCACCCAUGUGGGCGGUAGGCA [Vebiena] (Eterna round: R96, puzzle: Exclusion NG 1) | 19.8 |

Please find the next sequence below.
The sequence GCUAGUCAUGUCAGGAUAUGCAGAUCCUUGGAUCUGCAGAAGGGACAUGAGGAUCACCCAUGUGCCUAACUAGC [Mat - Exclusion 4 - JL Mod - D14] (Eterna round: R97, puzzle: Brourd's mod of Exclusion 4) showed apparent KD of MS2 coat protein equal to 479

Attribution: the supplement of paper PMC9170038
